Every entry's value here was drawn from ChEMBL document CHEMBL1201862.

Tested on: CAKI-1
Assay: NCI tumour cell line growth inhibition, 48 h
Activity calls are given as the source filed them. Cut-off read from the data, not from the text of the source: active = GI50 up to about 1.1 µM and inactive = higher.
Outcome codes: active, inactive

>  <MOLECULE>
COC(=O)C(Cc1ccccc1)NC(=O)Cn1ccnc1[N+](=O)[O-] (stereo not given)

>  <DISCRETE LABEL>
inactive

$$$$
>  <MOLECULE>
CNc1ncnc2c1cnn2Cc1cn(COCC(O)CO)nn1 (stereo not given)

>  <DISCRETE LABEL>
inactive

$$$$
>  <MOLECULE>
Cc1ncc([N+](=O)[O-])n1CCNC(=O)CCCCCn1ccnc1[N+](=O)[O-]

>  <DISCRETE LABEL>
inactive

$$$$
>  <MOLECULE>
C=C(C(=C)P(=S)(C(C)C)C(C)C)P(=S)(C(C)C)C(C)C

>  <DISCRETE LABEL>
inactive

$$$$
>  <MOLECULE>
CN(CCCN1C(=O)c2cccc3cc([N+](=O)[O-])cc(c23)C1=O)CCN(C)CCCN1C(=O)c2cccc3cc([N+](=O)[O-])cc(c23)C1=O

>  <DISCRETE LABEL>
inactive

$$$$
>  <MOLECULE>
CN(C(=O)Cc1cccc(N=C=S)c1)[C@H]1CCCC[C@@H]1N1CCCC1

>  <DISCRETE LABEL>
inactive

$$$$
>  <MOLECULE>
CC[C@]1(O)CC(OC2CC(N(C)C)C(O)C(C)O2)c2c(cc3c(c2O)C(=O)c2c(O)cccc2C3=O)[C@@H]1C(=O)OC (stereo not given in full)

>  <DISCRETE LABEL>
active

$$$$
>  <MOLECULE>
O=C1/C(=C2\Sc3c(ccc(Cl)c3Cl)C2=O)Sc2c1ccc(Cl)c2Cl

>  <DISCRETE LABEL>
inactive

$$$$
>  <MOLECULE>
CCCCCCC(=O)OC[n+]1cccc(-c2c(COC(=O)NC(C)C)c(COC(=O)NC(C)C)c3n2CCC3)c1

>  <DISCRETE LABEL>
inactive

$$$$
>  <MOLECULE>
CC(C)=CCC[C@@H](C)c1c2nc3ccccc3[nH]c-2c(C)c(=O)c1O

>  <DISCRETE LABEL>
inactive

$$$$

* * *

Tested on: MOLT-4
Experiment: NCI tumour cell line growth inhibition, 48 h
Active and inactive are the calls of the source. No stated cut-off is given here; in the data, active = GI50 up to about 1.1 µM and inactive = higher.
GI50 values for the compounds below.
READOUT TYPE: GI50

>  <COMPOUND>
CSC1=NC(=O)CCN1C1OCC(OC(C)=O)C(OC(C)=O)C1OC(C)=O (stereo not given)

>  <TARGET OF ASSAY>
MOLT-4

>  <READOUT TYPE>
GI50

>  <RESULT>
4.66 µM (inactive)

$$$$
>  <COMPOUND>
CC(=O)Oc1ccc2c3c1[C@H]1O[C@H]1c1cccc(c1-3)[C@@H]1O[C@H]21

>  <TARGET OF ASSAY>
MOLT-4

>  <READOUT TYPE>
GI50

>  <RESULT>
18.5 µM (inactive)

$$$$
>  <COMPOUND>
Nc1nc(Cl)nc2c1ncn2C1CC(O)C(CO)O1 (stereo not given)

>  <TARGET OF ASSAY>
MOLT-4

>  <READOUT TYPE>
GI50

>  <RESULT>
0.15 µM (active)

$$$$
>  <COMPOUND>
S=C1NCCN1C(=S)NC1CCCCC1

>  <TARGET OF ASSAY>
MOLT-4

>  <READOUT TYPE>
GI50

>  <RESULT>
21.1 µM (inactive)

$$$$
>  <COMPOUND>
COc1ccc(C(=O)/C=C/c2ccc(OCC(=O)O)cc2)cc1

>  <TARGET OF ASSAY>
MOLT-4

>  <READOUT TYPE>
GI50

>  <RESULT>
8.57 µM (inactive)

$$$$
>  <COMPOUND>
C/C1=C\CC[C@@]2(C)O[C@@H]2C[C@@H]2[C@H](C/C(C)=C/CC1)OC(=O)C21CC1

>  <TARGET OF ASSAY>
MOLT-4

>  <READOUT TYPE>
GI50

>  <RESULT>
21.7 µM (inactive)

$$$$
>  <COMPOUND>
CC(C)(C)OC(=O)C1=C(N)N(Cc2ccccc2)C2(C)C=CC(=O)C=C12 (stereo not given)

>  <TARGET OF ASSAY>
MOLT-4

>  <READOUT TYPE>
GI50

>  <RESULT>
2.48 µM (inactive)

$$$$
>  <COMPOUND>
CN(C)CCC(/C=C/c1ccccc1)=N\Nc1ccc(Cl)c(Cl)c1

>  <TARGET OF ASSAY>
MOLT-4

>  <READOUT TYPE>
GI50

>  <RESULT>
2.44 µM (inactive)

$$$$
>  <COMPOUND>
COc1ccc(NC(C)=O)cc1N1C(=O)/C(=C\c2ccccc2)SC1c1cc(OC)c(OC)c(OC)c1 (stereo not given)

>  <TARGET OF ASSAY>
MOLT-4

>  <READOUT TYPE>
GI50

>  <RESULT>
25.6 µM (inactive)

$$$$
>  <COMPOUND>
COC1=CCC2=C(CCN(C(=O)C3CC3)C2Cc2ccc(OC)c(O)c2)C1 (stereo not given)

>  <TARGET OF ASSAY>
MOLT-4

>  <READOUT TYPE>
GI50

>  <RESULT>
8.67 µM (inactive)

$$$$
>  <COMPOUND>
CC(C)CC(CNC(Cc1ccc(Cl)cc1)C(N)=O)NC(=O)C(Cc1c[nH]cn1)NC(=O)CNC(=O)C(NC(=O)C(C)NC(=O)C(Cc1c[nH]c2ccccc12)NC(=O)C(CCC(=O)O)NC(=O)C(N)Cc1ccccc1)C(C)C (stereo not given)

>  <TARGET OF ASSAY>
MOLT-4

>  <READOUT TYPE>
GI50

>  <RESULT>
> 133 µM (inactive)

$$$$
>  <COMPOUND>
Clc1ccc(-c2ccc(-c3nnc(CCc4nnc(-c5ccc(-c6ccc(Cl)cc6)o5)o4)o3)o2)cc1

>  <TARGET OF ASSAY>
MOLT-4

>  <READOUT TYPE>
GI50

>  <RESULT>
3.81 µM (inactive)

$$$$
>  <COMPOUND>
C/C(=C\c1ccccc1)C(=O)NCc1ccc(C(=O)NCCc2c[nH]c3ccccc23)cc1

>  <TARGET OF ASSAY>
MOLT-4

>  <READOUT TYPE>
GI50

>  <RESULT>
60.7 µM (inactive)

$$$$
>  <COMPOUND>
O=C1/C(=C/c2ccc(O)cc2)CCc2ccccc21

>  <TARGET OF ASSAY>
MOLT-4

>  <READOUT TYPE>
GI50

>  <RESULT>
2.82 µM (inactive)

$$$$
>  <COMPOUND>
Cc1ccccc1C1CC(c2ccccc2)=NO1 (stereo not given)

>  <TARGET OF ASSAY>
MOLT-4

>  <READOUT TYPE>
GI50

>  <RESULT>
> 100 µM (inactive)

$$$$
>  <COMPOUND>
CC(=O)NC(Cc1ccc(O)cc1)C(=O)O (stereo not given)

>  <TARGET OF ASSAY>
MOLT-4

>  <READOUT TYPE>
GI50

>  <RESULT>
> 100 µM (inactive)

$$$$
>  <COMPOUND>
CC[C@]1(O)CC(OC2CC(N(C)C)C(O)C(C)O2)c2c(cc3c(c2O)C(=O)c2c(O)cccc2C3=O)[C@@H]1C(=O)OC (stereo not given in full)

>  <TARGET OF ASSAY>
MOLT-4

>  <READOUT TYPE>
GI50

>  <RESULT>
0.0405 µM (active)

$$$$
>  <COMPOUND>
C/C(CC(=O)NC1=CC=C(NC(=O)C/C(C)=N\Nc2ccccc2)CC1)=N/Nc1ccccc1

>  <TARGET OF ASSAY>
MOLT-4

>  <READOUT TYPE>
GI50

>  <RESULT>
> 100 µM (inactive)

$$$$
>  <COMPOUND>
COc1ccc(-c2oc3c(OC)c(OC)cc(O)c3c(=O)c2OC)cc1

>  <TARGET OF ASSAY>
MOLT-4

>  <READOUT TYPE>
GI50

>  <RESULT>
> 100 µM (inactive)

$$$$
>  <COMPOUND>
CC(=O)C(CN1CCCCC1)C(c1ccccc1)c1c(O)c2ccccc2oc1=O (stereo not given)

>  <TARGET OF ASSAY>
MOLT-4

>  <READOUT TYPE>
GI50

>  <RESULT>
> 100 µM (inactive)

$$$$
